B1: CPEB3 Ribozyme (parent)
chain: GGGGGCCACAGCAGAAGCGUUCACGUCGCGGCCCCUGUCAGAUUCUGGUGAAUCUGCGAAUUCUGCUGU

# Variants of: B1
# Assay info: self-cleavage, relative activity (ratio to wild type); higher = more cleavage; co-transcriptional
Property name: self-cleavage
Answers are plain numbers.

# count of solved cases: 8
Briefly, self-cleavage measured for U55C C66A : 0.342

So for G3U G5C , the logged self-cleavage turned out to be 0.0208

Briefly, self-cleavage measured for U36A G68C : 0.227

Sample C32G C57G ; self-cleavage observed: 0.263

Just so you know, measured self-cleavage for U46A C66U came out at 0.972

// sample C12A U67G , its self-cleavage was 0.791

Kindly note the recorded self-cleavage for C7G C66A , which is 0.134

# self-cleavage (variant: C29G U61A ) is 0.57

// for each variant below, give its self-cleavage
1. U38A A59G
2. G11C A60U
3. U53C U62G
4. U49A U64G
5. G19A C29G
6. G50C A60U
7. U44C A51G
8. A23G C66A

Response:
0.939
0.243
0.384
0.835
0.153
0.456
0.693
0.597

Batch request: self-cleavage for each of the following variants.
1. C35A G65A
2. G19U A42C

Response:
1. 0.299
2. 0.269
